- TEST METHOD NOTES: photoluminescence quantum yield (fraction); solvent given as SMILES
- EXPERIMENTAL CONDITIONS: in C1CCOC1
Property: photoluminescence quantum yield; scope: individual compounds
ASSAY METRIC: photoluminescence quantum yield

COMPOUND: CCn1c2ccccc2c2cc(C#Cc3cc(C#Cc4ccc5c(c4)c4ccccc4n5CC)nc(N4CCCCC4)n3)ccc21
ASSAY METRIC: photoluminescence quantum yield
MEAS VALUE: 0.21
//
COMPOUND: Cc1ccc(C2=C3C=CC(Sc4ccccc4)=[N+]3[B-](F)(F)n3c(Sc4ccccc4)ccc32)cc1
ASSAY METRIC: photoluminescence quantum yield
MEAS VALUE: 0.82
//
COMPOUND: COc1ccc(-c2nc(-c3ccccc3O)c(-c3ccccc3O)n2-c2ccc(C)cc2)cc1
ASSAY METRIC: photoluminescence quantum yield
MEAS VALUE: 0.01
//
COMPOUND: CC(C)(C)c1ccc2c(c1)sc1[n+]2[B-](F)(F)n2c(c3cccc4cccc2c43)=C1C#N
ASSAY METRIC: photoluminescence quantum yield
MEAS VALUE: 0.67
//
COMPOUND: NS(=O)(=O)c1ccc(N2N=C(c3ccc(O)cc3)CC2c2ccc([N+](=O)[O-])cc2)cc1 (stereo not drawn)
ASSAY METRIC: photoluminescence quantum yield
MEAS VALUE: 0.01
//
COMPOUND: COc1ccc(-c2nc3ccccc3nc2/C=C/N2CCCC2)s1
ASSAY METRIC: photoluminescence quantum yield
MEAS VALUE: 0.155
//
COMPOUND: CCCCCCCCC1(CCCCCCCC)c2cc(C=O)ccc2-c2ccc(/C=C/c3ccc(N(c4ccccc4)c4ccccc4)cc3)cc21
ASSAY METRIC: photoluminescence quantum yield
MEAS VALUE: 0.94
//
COMPOUND: Cc1ccc(-c2ccc(-c3ccc(-c4ccc(-c5ccc(C)cc5)cc4)c(/C(=C(/c4ccccc4)c4cc(-c5ccc(-c6ccc(C)cc6)cc5)ccc4-c4ccc(-c5ccc(C)cc5)cc4)c4ccccc4)c3)cc2)cc1
ASSAY METRIC: photoluminescence quantum yield
MEAS VALUE: 0.3
//
COMPOUND: Cc1ccc(C)n1-c1ccc(C#N)cc1
ASSAY METRIC: photoluminescence quantum yield
MEAS VALUE: 0.025
//
COMPOUND: O=C(O)c1c2ccccc2c(C(=O)O)c2ccccc12
ASSAY METRIC: photoluminescence quantum yield
MEAS VALUE: 0.66
//
COMPOUND: C(=C\c1cc2ccccc2c2ccccc12)/c1cc2ccccc2c2ccccc12
ASSAY METRIC: photoluminescence quantum yield
MEAS VALUE: 0.6
//
COMPOUND: COc1cc2c(cc1-c1ccc(C)cc1)Cc1c3c(c4c(c1-2)-c1cc(OC)c(-c2ccc(C)cc2)cc1C4)C(=O)N(CCC(C)C)C3=O
ASSAY METRIC: photoluminescence quantum yield
MEAS VALUE: 0.67
//
COMPOUND: Cc1ccc(C2=C3C=CC(/C=C/c4ccccc4)=[N+]3[B-](F)(F)n3c(Cl)ccc32)cc1
ASSAY METRIC: photoluminescence quantum yield
MEAS VALUE: 0.56
//
COMPOUND: COC(=O)c1ccc(-c2ccc3c(c2)C(=O)c2cc(-c4ccc(C(=O)OC)cc4)ccc2-3)cc1
ASSAY METRIC: photoluminescence quantum yield
MEAS VALUE: 0.02
//
COMPOUND: CN(C)c1ccc(/C=C2\CC/C(=C\c3ccc(N(C)C)cc3)C2=O)cc1
ASSAY METRIC: photoluminescence quantum yield
MEAS VALUE: 0.089
//
COMPOUND: Clc1cnc2nn3ccccc3c2n1
ASSAY METRIC: photoluminescence quantum yield
MEAS VALUE: 0.38
//
COMPOUND: CCC(=O)c1ccc2cc(N(C)C)ccc2c1
ASSAY METRIC: photoluminescence quantum yield
MEAS VALUE: 0.83
//
COMPOUND: c1ccc(/C(=C(\c2ccccc2)c2cc(-c3ccccc3)ccc2-c2ccc(-c3ccccc3)cc2)c2cc(-c3ccccc3)ccc2-c2ccc(-c3ccccc3)cc2)cc1
ASSAY METRIC: photoluminescence quantum yield
MEAS VALUE: 0.38
